Data export: IC50 values recorded with CYP3A4 (Homo sapiens).
Sequence (P08684 whole entry): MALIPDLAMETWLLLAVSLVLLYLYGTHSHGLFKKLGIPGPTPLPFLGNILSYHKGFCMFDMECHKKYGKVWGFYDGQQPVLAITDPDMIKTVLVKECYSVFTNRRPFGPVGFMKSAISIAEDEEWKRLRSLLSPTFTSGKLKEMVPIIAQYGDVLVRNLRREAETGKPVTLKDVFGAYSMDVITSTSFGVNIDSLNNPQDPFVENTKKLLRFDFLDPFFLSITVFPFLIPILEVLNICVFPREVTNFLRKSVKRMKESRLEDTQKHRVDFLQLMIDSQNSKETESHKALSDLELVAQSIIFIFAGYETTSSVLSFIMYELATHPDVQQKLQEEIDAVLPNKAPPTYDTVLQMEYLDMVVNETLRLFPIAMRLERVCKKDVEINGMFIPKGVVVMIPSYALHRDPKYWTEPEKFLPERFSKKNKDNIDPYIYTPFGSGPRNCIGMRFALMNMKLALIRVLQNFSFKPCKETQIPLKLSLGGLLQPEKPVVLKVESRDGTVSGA

>  <molecule>
FC(F)(F)c1cc(NCc2cn(-c3ccc(Oc4ccccc4)cc3)nn2)ccn1 [Compound 4]

>  <bound_operator>
=

>  <IC50 [µM]>
15

$$$$
>  <molecule>
COc1ccc(-n2cc(CNc3ccnc(C(F)(F)F)c3)nn2)cc1Cl [Compound 17]

>  <bound_operator>
>

>  <IC50 [µM]>
25

$$$$

###

Recorded measurements of IC50, one per entry
molecular target: hERG channel (Homo sapiens); construct: Cyprotex (contract assay); test: hERG functional patch-clamp inhibition assay
Sequence (Q12809 whole entry): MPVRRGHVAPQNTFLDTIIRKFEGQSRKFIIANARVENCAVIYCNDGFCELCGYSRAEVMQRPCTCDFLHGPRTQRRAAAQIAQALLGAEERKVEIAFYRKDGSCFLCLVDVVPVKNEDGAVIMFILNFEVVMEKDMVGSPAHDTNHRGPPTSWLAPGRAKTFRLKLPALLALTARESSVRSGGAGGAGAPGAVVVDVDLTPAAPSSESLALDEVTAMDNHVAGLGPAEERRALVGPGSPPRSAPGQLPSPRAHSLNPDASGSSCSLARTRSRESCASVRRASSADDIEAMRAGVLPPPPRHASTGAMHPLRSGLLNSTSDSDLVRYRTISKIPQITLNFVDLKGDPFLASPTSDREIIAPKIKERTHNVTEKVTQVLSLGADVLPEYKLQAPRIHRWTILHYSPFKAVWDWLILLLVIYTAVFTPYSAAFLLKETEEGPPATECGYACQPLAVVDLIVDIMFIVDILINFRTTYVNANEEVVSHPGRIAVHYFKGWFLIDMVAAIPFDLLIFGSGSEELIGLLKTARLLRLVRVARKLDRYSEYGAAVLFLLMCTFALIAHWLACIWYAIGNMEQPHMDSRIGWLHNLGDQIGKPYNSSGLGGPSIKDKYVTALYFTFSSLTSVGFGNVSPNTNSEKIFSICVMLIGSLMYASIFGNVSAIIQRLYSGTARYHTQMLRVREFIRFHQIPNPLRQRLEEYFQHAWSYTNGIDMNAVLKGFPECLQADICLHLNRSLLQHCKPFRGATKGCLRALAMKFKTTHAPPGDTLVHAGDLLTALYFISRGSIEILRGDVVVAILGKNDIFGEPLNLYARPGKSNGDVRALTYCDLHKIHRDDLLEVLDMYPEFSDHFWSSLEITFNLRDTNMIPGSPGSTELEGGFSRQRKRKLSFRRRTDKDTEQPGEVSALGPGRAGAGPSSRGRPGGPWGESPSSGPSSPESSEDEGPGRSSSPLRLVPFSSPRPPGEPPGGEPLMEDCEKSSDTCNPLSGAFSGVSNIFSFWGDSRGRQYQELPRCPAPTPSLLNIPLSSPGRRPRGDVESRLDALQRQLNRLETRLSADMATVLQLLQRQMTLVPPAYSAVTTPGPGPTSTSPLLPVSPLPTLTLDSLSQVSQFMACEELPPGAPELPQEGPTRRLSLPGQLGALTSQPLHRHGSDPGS
readout_type: IC50

>  <compound>
FC(F)(F)c1cc(NCc2cn(-c3ccc(Oc4ccccc4)cc3)nn2)ccn1 [Compound 4]

>  <result>
> 25 µM

$$$$
>  <compound>
COc1ccc(-n2cc(CNc3ccnc(C(F)(F)F)c3)nn2)cc1Cl [Compound 17]

>  <result>
> 25 µM

$$$$

Cited source for all entries: paper PMC8224453
